Biological target: Ataxin-2 (Homo sapiens)
Experiment: qHTS for Inhibitors of ATXN expression.
Assay type: functional
About 2,100 (0.53%) of roughly 400,000 compounds were called active. Inconclusive results (about 14%) are left out. No rule for the calls is given here. Many of the other results were omitted from the sample, so actives are more common in it than they were.
// one of TRUE for active, FALSE for inactive, no free text

Answered examples (5):
                                   molecule  category_label
0  O=C(CCl)N1CCN2C(=O)c3ccccc3C12c1ccc(Cl)cc1 (configuration not stated)            TRUE
1  CN(C)c1ccc(/C=N/N(CCO)C2=NS(=O)(=O)c3ccccc32)cc1           FALSE
2                O=C(Nc1ncccn1)c1cccc(Cl)c1           FALSE
3  Cc1ccc(S(=O)(=O)NC23CC4CC(CC(C4)C2)C3)cc1           FALSE
4            Cc1cccc(OCCCC(=O)N2CCCCCC2)c1C           FALSE

Next molecule, please.
So what was the verdict on CCN(CC)c1ccc2cc(C=O)c(=O)oc2c1 in this test?
FALSE

###

Molecular target: Ataxin-2 (Homo sapiens)
Assay: qHTS for Inhibitors of ATXN expression.
Type: functional
Screen size: about 400,000 compounds; about 2,100 (0.53%) were called active. Inconclusive results (about 14%) are left out. No rule for the calls is given here. What follows is part of a selection rich in actives, with near analogues and random picks from the rest.
// one of active, inactive, no free text

>>> print(df.to_string())
                                   compound         target_or_system  category_label
0  N#C/C(=C(/O)COC(=O)c1ccccc1O)c1nc2ccccc2s1  Ataxin-2 (Homo sapiens)        inactive
1  Cn1c(=O)c([N+](=O)[O-])c(-n2ccnc2)c2ccccc21  Ataxin-2 (Homo sapiens)          active

So what was the verdict on C=CC[C@H](CC(=O)N(CCO)Cc1ccccc1)C(=O)NC[C@@H](OC(=O)[C@@H](CC=C)Cc1ccc(F)cc1)c1ccccc1 in this test?
active

So what was the verdict on Oc1ncc(I)cc1I in this test?
inactive

So what was the verdict on C=CC[C@H](CC(=O)N(CCO)Cc1ccccc1)C(=O)N[C@H](COC(=O)[C@@H](CC=C)Cc1ccc(F)cc1)Cc1ccccc1 in this test?
active

So what was the verdict on COc1cc(C2NC(=O)NC(c3ccccc3)=C2C(C)=O)cc([N+](=O)[O-])c1O (centres undefined) in this test?
inactive

So what was the verdict on COc1ccc(C2=CSC3=NCCN23)cc1Br in this test?
inactive

So what was the verdict on C=CC[C@H](CC(=O)N(CCO)Cc1ccccc1)C(=O)N[C@H](COC(=O)[C@@H](CC=C)Cc1ccc(F)cc1)C(C)(C)C in this test?
active

So what was the verdict on C=CCC[C@H](Cc1ccc(F)cc1)C(=O)OC[C@@H](NC(=O)[C@@H](CC=C)CC(=O)N[C@@H](CO)Cc1ccccc1)C(C)(C)C in this test?
active

###

Molecular target: Ataxin-2 (Homo sapiens) (UniProt Q99700)
Sequence (Q99700 whole entry): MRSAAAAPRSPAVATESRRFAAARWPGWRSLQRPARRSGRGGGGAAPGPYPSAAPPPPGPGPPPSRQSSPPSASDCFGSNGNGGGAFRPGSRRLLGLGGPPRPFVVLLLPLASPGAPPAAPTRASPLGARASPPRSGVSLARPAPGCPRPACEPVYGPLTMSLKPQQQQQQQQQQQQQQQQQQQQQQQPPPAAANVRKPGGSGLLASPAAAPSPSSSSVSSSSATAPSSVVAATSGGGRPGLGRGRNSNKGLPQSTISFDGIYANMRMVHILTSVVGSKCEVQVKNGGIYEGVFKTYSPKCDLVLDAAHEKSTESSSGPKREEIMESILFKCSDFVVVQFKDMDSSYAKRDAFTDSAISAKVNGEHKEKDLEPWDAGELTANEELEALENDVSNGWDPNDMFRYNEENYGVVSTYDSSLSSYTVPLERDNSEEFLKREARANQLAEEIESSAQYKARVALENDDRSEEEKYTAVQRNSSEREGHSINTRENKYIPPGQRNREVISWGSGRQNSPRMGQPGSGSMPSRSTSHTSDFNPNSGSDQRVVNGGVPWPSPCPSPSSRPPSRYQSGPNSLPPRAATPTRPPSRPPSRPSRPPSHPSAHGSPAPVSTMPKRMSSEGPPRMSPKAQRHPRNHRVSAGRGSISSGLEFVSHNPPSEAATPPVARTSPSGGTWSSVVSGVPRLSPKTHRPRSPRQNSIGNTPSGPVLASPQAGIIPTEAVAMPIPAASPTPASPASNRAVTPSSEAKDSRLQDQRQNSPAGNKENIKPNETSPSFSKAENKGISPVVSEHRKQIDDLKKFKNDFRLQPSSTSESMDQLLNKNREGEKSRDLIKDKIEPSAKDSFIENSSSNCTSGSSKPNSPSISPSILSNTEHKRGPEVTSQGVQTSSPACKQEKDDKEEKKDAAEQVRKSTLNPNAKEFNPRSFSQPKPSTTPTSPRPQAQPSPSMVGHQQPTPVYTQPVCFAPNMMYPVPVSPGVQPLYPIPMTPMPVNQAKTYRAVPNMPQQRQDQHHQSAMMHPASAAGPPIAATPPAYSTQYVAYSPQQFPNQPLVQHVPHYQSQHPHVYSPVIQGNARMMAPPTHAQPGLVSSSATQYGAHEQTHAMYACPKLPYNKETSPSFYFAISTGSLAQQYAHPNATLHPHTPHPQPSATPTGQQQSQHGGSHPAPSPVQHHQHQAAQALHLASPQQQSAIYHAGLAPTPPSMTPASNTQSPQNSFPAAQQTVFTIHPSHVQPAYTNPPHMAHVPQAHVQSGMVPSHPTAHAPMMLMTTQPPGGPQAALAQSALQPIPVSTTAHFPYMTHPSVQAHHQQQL
Assay: qHTS for Inhibitors of ATXN expression.
Assay type: functional
The whole screen tested about 400,000 compounds, of which about 2,100 (0.53%) were called active. About 14% were inconclusive and are not listed. This is one part of a sample in which actives are shown more often than they occur.
observed property: Potency

// solved cases for Potency follow
In [3]: df
Out[3]:
                                   compound  observed_property             value
0  O=S(=O)(O)c1cc(O)c(N=Nc2ccc(O)cc2O)c2ccccc12            Potency  22.4 µM (active)
1  COc1ccc(C2C=C(c3ccc(F)cc3)Nc3nc(-c4ccc(Cl)cc4)nn32)cc1 (configuration not stated)            Potency          inactive
2  Cc1cc(N2CCN(C)CC2)nc2ccc(NC(=O)CCC3CCCC3)cc12            Potency          inactive
3           CSc1ccccc1NC(=O)c1cc(CC(C)C)on1            Potency          inactive

Could you report Potency for every entry in the following list?
1. CC(=O)N1CCCc2cc(S(=O)(=O)N3CCCC(C(=O)N4CCN(c5cccc(Cl)c5)CC4)C3)ccc21 (configuration not stated)
2. CCCCn1c(C2CCCCC2)nc2cc3nc(O)c(C(C)C)nc3cc21
3. COC(=O)c1ccc(NC(=O)c2cccc(C)c2)cc1
4. CCCc1c(-c2ccc(O)cc2)nn(-c2ccc(O)cc2)c1-c1ccc(O)cc1
5. CC(C)Cc1ccc(C(C)C(=O)Nc2ncccn2)cc1 (configuration not stated)
6. CCN(CC)CCN(C(=O)CCS(=O)(=O)c1ccccc1)c1nc2c(C)cc(C)cc2s1

39.8 µM (active)
35.5 µM (active)
inactive
25.1 µM (active)
inactive
44.7 µM (active)

Could you report Potency for every entry in the following list?
1. O=c1nc2n(-c3ccccc3F)c3ccccc3cc-2c(=O)[nH]1
2. CCOc1ccc(/C=C/c2nc(C#N)c(NCCCOC)o2)cc1
3. Cc1ccc2nc(N3CCN(C)CC3)c(C=O)c(=O)n2c1
4. CCCCn1c(-c2cccc(C)c2)nc2cc3nc(O)c(C(C)C)nc3cc21
5. CCOC(=O)C1(CCOc2ccccc2)CCN(Cc2ccc(C#CCCO)cc2)CC1
6. O=C(Nc1cc[n+](-c2nc3ccccc3nc2[N-]S(=O)(=O)c2ccccc2)cc1)c1cccs1
7. O=C(CCc1ccccc1)NCC1(c2ccccc2)CCCC1

1: inactive; 2: inactive; 3: inactive; 4: 31.6 µM (active); 5: inactive; 6: inactive; 7: inactive

###

Molecular target: Ataxin-2 (Homo sapiens)
Assay: qHTS for Inhibitors of ATXN expression.
Type: functional
Among all 400,000 compounds or so, about 2,100 (0.53%) were called active. Another 14% or so got no clear call; they are omitted. How the calls were made is not given here. This excerpt belongs to a sample that is enriched for actives.
// one of 1 = active, -1 = inactive, no free text

                                   compound  category_label
0     O=C(COC(=O)CCSc1ccc(Cl)cc1)NCc1ccccc1              -1
1  O=C(c1ccccc1)C(CCC(CN1CCOCC1)C(=O)c1ccccc1)CN1CCOCC1 (configuration not stated)               1
2  O=C(NCCCN1CCCCC1)c1[nH]c2ccccc2c1Sc1ccc(Cl)cc1               1
3  COc1ccc(-c2cc(C(F)(F)F)n3ncc(C(=O)N4CCc5ccccc5C4)c3n2)cc1              -1
4  COC(=O)C1CCN(C(=O)COC(=O)c2oc3ccc(OC)cc3c2C)CC1              -1

So what was the verdict on O=C(Nc1nc2ccccc2s1)c1cc2c(s1)-c1ccccc1OC2 in this test?
-1

So what was the verdict on CCn1c(=N)c(C(=O)NCC2CCCO2)cc2c(=O)n3cc(C)ccc3nc21 (configuration not stated) in this test?
-1

So what was the verdict on CCc1cccc(NC(=O)CCS(=O)(=O)c2ccc(Br)cc2)c1 in this test?
-1

So what was the verdict on CN(C)S(=O)(=O)c1ccc(Cl)c(C(=O)Nc2cccc([N+](=O)[O-])c2)c1 in this test?
-1

So what was the verdict on O=C(c1ccc(F)cc1)C(CN1CCOCC1)c1ccccc1 (configuration not stated) in this test?
1

So what was the verdict on Cc1[nH]c2ccccc2c1SCC(=O)N1CCCCC1 in this test?
-1

So what was the verdict on Cc1nc2ccc(S(=O)(=O)Nc3ccc(-c4nc5cccnc5s4)cc3)cc2s1 in this test?
-1

So what was the verdict on CC1(C)CC(=O)c2sc(NC(=O)CCS(=O)(=O)c3ccccc3)nc2C1 in this test?
1

So what was the verdict on CN1CCN(S(=O)(=O)c2ccc(NC(=O)COc3ccccc3)cc2)CC1 in this test?
-1

So what was the verdict on Cc1cc(=O)oc2cc(OC(=O)c3ccco3)ccc12 in this test?
-1

###

Target: Ataxin-2 (Homo sapiens) (UniProt Q99700)
Experiment: qHTS for Inhibitors of ATXN expression.
Type: functional
In all, about 400,000 compounds went through this assay and about 2,100 (0.53%) were called active. About 14% were inconclusive and are not listed. How the calls were made is not given here. The sample as a whole holds a higher share of actives than the screen did.
// one of True for active, False for inactive, no free text

Answered examples (5):
>>> df
                                   compound  category_label
0  COc1ccc(C2CC(c3ccccc3C(F)(F)F)=NN2c2ccc(S(N)(=O)=O)cc2)cc1 (stereo not given)           False
1  CN1CCCC1CCNc1ccc2c(=O)c3ccccc3oc2c1 (stereo not given)           False
2  CCC(CC)C(=O)N(C)c1c(C)nc2c(OCCC3CCCCC3)cccn12            True
3  Cc1c(C)c2cc3c(c(C)c2oc1=O)OCN(CCc1ccccc1)C3           False
4  Cc1c(O)ccc2c(CC(=O)N[C@@H](Cc3ccc(O)cc3)C(=O)O)cc(=O)oc12           False

So what was the verdict on Cc1c(-c2ccc(Cl)cc2)c(=O)oc2c(CN3CCCC3)c(O)ccc12 in this test?
False

So what was the verdict on COc1ccc(/C=C2\Oc3cc(OCC(=O)N4CCC(C(=O)O)CC4)ccc3C2=O)c(OC)c1 in this test?
False

So what was the verdict on O=C(CN1C(=O)NC(Cc2c[nH]c3ccccc23)C1=O)Nc1ccc(F)c(F)c1F (stereo not given) in this test?
False

So what was the verdict on COc1ccc(CNc2cc(C)nc3ccc(OC)cc23)cc1 in this test?
False

So what was the verdict on COc1ccc(CNCCC2(C(C)C)CCOC(C)(C)C2)cc1 (stereo not given) in this test?
False
